Recorded values, source patent US8080529B2.

tested on: TNF-α; experiment: Lipopolysaccharide induced TNF-α production in Balb/cJ mice; type: in vivo; details: Mus musculus, ip, 1.5 h; 10 mg/kg intraperitoneally, 30 min before LPS; 90 min after LPS; read-out: % inhibition of TNF-α production (plasma)
Output schema: class label derived from inhibition in vivo at 10 mg/kg. Mapping: low band = under 60%, middle band = from 60% up to 80%, high band = 80% and over

| compound | label class |
| --- | --- |
| CC[C@H]1OC(=O)[C@H](C)[C@@H](O[C@H]2C[C@@](C)(OC)[C@@H](OC(=O)CCN3CCN(CCN(CC)CC)CC3)[C@H](C)O2)[C@H](C)[C@@H](O[C@@H]2O[C@H](C)C[C@H](N(C)C)[C@H]2O)[C@](C)(OC)C[C@@H](C)C(=O)N[C@H](C)[C@@H](O)[C@]1(C)O | high band |
| CC[C@H]1OC(=O)[C@H](C)[C@@H](O[C@H]2C[C@@](C)(OC)[C@@H](O)[C@H](C)O2)[C@H](C)[C@@H](O[C@@H]2O[C@H](C)C[C@H](N(C)C)[C@H]2O)[C@](C)(OC)C[C@@H](C)C(=O)[C@H](C)[C@@H](O)[C@]1(C)O [clarithromycin, reference compound] | middle band |
| CC[C@H]1OC(=O)[C@H](C)[C@@H](O[C@H]2C[C@@](C)(OC)[C@@H](OC(=O)CCN3CCN(CCN(C)C)CC3)[C@H](C)O2)[C@H](C)[C@@H](O[C@@H]2O[C@H](C)C[C@H](N(C)C)[C@H]2O)[C@](C)(OC)C[C@@H](C)C(=O)N[C@H](C)[C@@H](O)[C@]1(C)O | high band |
| CC[C@H]1OC(=O)[C@H](C)[C@@H](O[C@H]2C[C@@](C)(OC)[C@@H](OC(=O)CCN(C)C)[C@H](C)O2)[C@H](C)[C@@H](O[C@@H]2O[C@H](C)C[C@H](N(C)C)[C@H]2O)[C@](C)(OC)C[C@@H](C)C(=O)N[C@H](C)[C@@H](O)[C@]1(C)O | middle band |
| CC[C@H]1OC(=O)[C@H](C)C(O[C@H]2C[C@@](C)(OC)[C@@H](OC(=O)CCN(CC)CC)[C@H](C)O2)[C@H](C)[C@@H](O[C@@H]2O[C@H](C)C[C@H](N(C)C)[C@H]2O)[C@](C)(OC)C[C@@H](C)C(=O)[C@H](C)[C@H](O)[C@]1(C)O (stereo partly drawn) | low band |
| CC[C@H]1OC(=O)[C@H](C)[C@@H](O[C@H]2C[C@@](C)(OC)[C@@H](OC(=O)CCN(CC)CC)[C@H](C)O2)[C@H](C)[C@@H](O[C@@H]2O[C@H](C)C[C@H](N(C)C)[C@H]2O)[C@](C)(O)C[C@@H](C)CN(C)[C@H](C)[C@H]2OC(=O)O[C@@]21C | middle band |
| CC[C@H]1OC(=O)[C@H](C)[C@@H](O[C@H]2C[C@@](C)(OC)[C@@H](OC(=O)CCN(C)CCO)[C@H](C)O2)[C@H](C)[C@@H](O[C@@H]2O[C@H](C)C[C@H](N(C)C)[C@H]2O)[C@](C)(OC)C[C@@H](C)C(=O)N[C@H](C)[C@@H](O)[C@]1(C)O | high band |
| CC[C@H]1OC(=O)[C@H](C)[C@@H](O[C@H]2C[C@@](C)(OC)[C@@H](OC(=O)CCN(CC)CC)[C@H](C)O2)[C@H](C)[C@@H](O[C@@H]2O[C@H](C)C[C@H](NC)[C@H]2O)[C@](C)(OC)C[C@@H](C)C(=O)N[C@H](C)[C@@H](O)[C@]1(C)O | low band |
| CC[C@H]1OC(=O)[C@H](C)[C@@H](O[C@H]2C[C@@](C)(OC)[C@@H](O)[C@H](C)O2)[C@H](C)[C@@H](O[C@@H]2O[C@H](C)C[C@H](N(C)C)[C@H]2O)[C@](C)(O)C[C@@H](C)CN(C)[C@H](C)[C@@H](O)[C@]1(C)O [azithromycin, reference compound] | low band |
| CC[C@H]1OC(=O)[C@H](C)[C@@H](O[C@H]2C[C@@](C)(OC)[C@@H](OC(=O)CCN(CC)CC)[C@H](C)O2)[C@H](C)[C@@H](O[C@@H]2O[C@H](C)C[C@H](N(C)C)[C@H]2O)[C@](C)(O)C[C@@H](C)CN(C)[C@H](C)[C@@H](O)[C@]1(C)O | low band |
| CC[C@H]1OC(=O)[C@H](C)[C@@H](O[C@H]2C[C@@](C)(OC)[C@@H](OC(=O)CCN3CCN(CCCN(CC)CC)CC3)[C@H](C)O2)[C@H](C)[C@@H](O[C@@H]2O[C@H](C)C[C@H](N(C)C)[C@H]2O)[C@](C)(OC)C[C@@H](C)C(=O)N[C@H](C)[C@@H](O)[C@]1(C)O | high band |
